All figures here come from PubChem BioAssay AID1211.

Measured inhibition of ligand binding of individual entries
# Assayed target: Estrogen receptor (Homo sapiens)
# Protocol text: ERalpha ligand binders by competition, primary screen, cell-based, Cos7 ERalpha-GFP, flow cytometry (AID 1211);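 further: 0% = DMSO vehicle wells and 100% = no E2-Alexa633 signal left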
# Assay setup: fluorescent ligand competition, at 10 µM, hits give high values
Could you give me the number in %? Just the number is fine.

Examples with answers:
1. ON=C1/C(=N\O)CC2(C/C1=N/O)OCCO2 :: 33
2. CC(=O)c1cccc(NC(=O)Cc2cccs2)c1 :: 3
3. Cc1c(Cl)cccc1NS(=O)(=O)c1ccc2c(c1)C1C=CCC1C(c1ccc(C(=O)O)cc1)N2 (stereo not drawn) :: 55
4. CC(C)c1ccc2c(c1)[C@H]1OCC[C@H]1[C@@H](c1cccs1)N2 :: 0
5. CCn1c(SCC(=O)Nc2cccc(F)c2)nnc1-c1cc2cc(Br)ccc2o1 :: 26
6. C[C@]12CC[C@@H]3c4ccc(O[C@@H]5O[C@H](C(=O)O)[C@@H](O)[C@H](O)[C@H]5O)cc4CC[C@H]3[C@@H]1C[C@@H](O)[C@@H]2O :: 72
7. C/C(N)=C(/C#N)C(=O)CSc1nnc(Nc2cccc(C)c2C)s1 :: 32
8. COc1ccc(C2Nc3ccccc3C(=O)N2c2ccc(F)cc2)cc1CSc1ccccn1 (stereo not drawn) :: 10

Qu. Could you share which inhibition of ligand binding value was measured for Cc1cccc(N2CSC3=C(C#N)C(c4ccc(C)o4)CC(=O)N3C2)c1 (stereo not drawn) ?
Ans. 27

Qu. Value lookup for inhibition of ligand binding; key = CCOC(=O)Cc1cc(-c2ccc(O)cc2)nc2ccc3ccccc3c12
Ans. 37

Qu. I would be grateful if you could share the reported inhibition of ligand binding for COc1ccc(CNC(=O)c2cc(-c3cccs3)on2)cc1 .
Ans. 40

Qu. Can you look up the measured inhibition of ligand binding of O=C(Nc1ccc(O)cc1C(=O)O)c1ccc2c(c1)C(=O)N(Cc1ccco1)C2=O for me?
Ans. 33

Qu. Bench note: what inhibition of ligand binding did CC(C)(C)OC(=O)N1CCN(c2ccc(NC(=O)Cn3nnc(-c4ccccc4)n3)cc2)CC1 show?
Ans. 37

Qu. Can you look up the measured inhibition of ligand binding of Cc1oc2ccc(OCC#N)cc2c1C(=O)OC(C)C for me?
Ans. 0

Qu. Which inhibition of ligand binding reading was recorded for the molecule CCn1c(=NC(=O)c2ccc(N3C(=O)CCC3=O)cc2)sc2c(OC)ccc(OC)c21 ?
Ans. 66

Qu. inhibition of ligand binding for CCO/C([O-])=N/c1c[n+](N2CCOCC2)no1 ?
Ans. 0

Qu. Sample Cc1cc(C)c2c(c1)[C@@H]1C=CC[C@@H]1[C@H](c1ccc(S(=O)(=O)N3CCOCC3)cc1)N2 — what was its inhibition of ligand binding?
Ans. 66

Qu. Quick one: inhibition of ligand binding of COc1ccccc1N1CCN(C(=O)c2ccc3nc(-c4ccco4)c(-c4ccco4)nc3c2)CC1 ?
Ans. 36

Qu. # query: inhibition of ligand binding of entry COc1ccc(NC(=O)CSc2nc3ccccc3c3nc4ccccc4n23)cc1
Ans. 23

Qu. For the molecule O=C(O)c1cc(-c2ccco2)nc2ccccc12 , what inhibition of ligand binding is on record?
Ans. 57

Qu. Param item = Cc1cc(NC(=O)CSc2cn(CCNC(=O)c3ccc(Cl)cc3)c3ccccc23)no1 ; retrieve measured inhibition of ligand binding.
Ans. 15

Qu. Reported inhibition of ligand binding, molecule COc1ccc(-c2ccc(=O)[nH]n2)cc1 : ____
Ans. 22

Qu. Which inhibition of ligand binding reading was recorded for the molecule NC(=O)c1cccc2c1C(=O)N(C1CCCCC1)C2 ?
Ans. 26

Qu. # query: inhibition of ligand binding of entry COc1ccc(C2(CNCC(N)=O)CCCC2)cc1OC
Ans. 10

Qu. Entry under review: O=C(NCc1ccco1)c1cc2cc3ccc(Cl)cc3nc2o1 . Reported inhibition of ligand binding?
Ans. 49

Qu. I'd like to know its inhibition of ligand binding. The molecule in question is COc1ccc2nc3oc(C(=O)N4CCN(c5cccc(C(F)(F)F)c5)CC4)cc3cc2c1
Ans. 45

Qu. Sample CCCCCCc1cc2c3c(c(=O)oc2cc1OCC(=O)O)CCCC3 — what was its inhibition of ligand binding?
Ans. 1

Qu. Recorded inhibition of ligand binding for Cc1nn2cc(-c3ccc(N)cc3)nc2s1 , please?
Ans. 28

Qu. Fill blank: measured inhibition of ligand binding of the molecule CCOC(=O)c1c(C)[nH]c(C)c1C(=O)CSc1nnc(-c2cc(OC)c(OC)c(OC)c2)o1 is ____.
Ans. 57
